- target of assay: T1, GFP-9S library array, motif 4 ND N98S;D124K (synthetic construct, N98S;D124K)
- T1 chain: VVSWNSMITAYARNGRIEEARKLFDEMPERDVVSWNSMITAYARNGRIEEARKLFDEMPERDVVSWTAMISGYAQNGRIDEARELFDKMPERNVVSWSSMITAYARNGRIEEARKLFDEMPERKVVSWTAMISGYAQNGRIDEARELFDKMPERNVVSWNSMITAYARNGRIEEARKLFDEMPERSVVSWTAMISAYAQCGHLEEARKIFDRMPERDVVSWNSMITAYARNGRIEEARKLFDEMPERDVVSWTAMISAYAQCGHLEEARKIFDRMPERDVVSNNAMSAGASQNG
- test details: high-throughput RNA pulldown from lysate on Ni-NTA beads; HRP: 50 mM Tris pH 8, 150 mM NaCl, 1 mM beta-mercaptoethanol, 50 ug/ml BSA, 3 ug/ml yeast RNA, 0.5% heparin; ITC and FP: Tris pH 8, 200 mM KCl, 5% glycerol; MST: 50 mM Tris pH 8, 200 mM NaCl, 1 mM DTT, BSA, heparin, 0.05% Tween 20
- test parameters: tags: N-terminal His-eGFP; label: 5' Cy5
metric name: pKd
# pKd: negative log10 of molar concentration; output just the value

# pKd lookup, item AUUAGACGUGA (ssRNA) [Cy5-rpoA-G] 6.98

# pKd lookup, item AUUACACGUGA (ssRNA) [Cy5-rpoA] 7.06
